Tested on: Caco-2
Test: cell viability relative to DMSO; higher = less toxic
Details: 72 h; 1000 nM
Please go through the items and note down their cell viability.
Give just the numeric value; % need not be written.

Query :: Recorded cell viability of CCCCC1(COC(=O)CCC(=O)O)C(=O)N(c2ccccc2)N(c2ccccc2)C1=O [suxibuzone] , please.
Result :: 91.8

Query :: Follow-up entry: CCc1ccc(/C=C/C(=O)Nc2ccc(C(C)=O)cc2)o1 [heclin]
Result :: 95.2

Query :: Same for Cc1cc(C)c(NC(=O)N(Cc2ccc3c(c2)Cc2ccccc2-3)C2CCCCCC2)c(C)c1 [YM-750]
Result :: 100

Query :: Quick one: CC[C@H](C)C(=O)O[C@H]1C[C@@H](C)C=C2C=C[C@H](C)[C@H](CC[C@@H]3C[C@@H](O)CC(=O)O3)[C@H]21 [lovastatin]
Result :: 106

Query :: What about Nc1nc(Nc2ccccc2)nc2c1ncn2[C@@H]1O[C@H](CO)[C@@H](O)[C@H]1O [CV-1808] ?
Result :: 105

Query :: What do you get for CC(=O)/N=c1/sc(S(N)(=O)=O)nn1C [methazolamide] ?
Result :: 94

Query :: Now this one: C[C@]12CC[C@H]3[C@@H](CCC4=CC(=O)CC[C@@]43C)[C@@H]1CC[C@@H]2C(=O)CO [desoxycortone]
Result :: 97

Query :: Input O=C(Nc1ccncc1)c1cc([N+](=O)[O-])ccc1Cl
Result :: 96.3

Query :: Param item: Cc1cccc(C)c1NC(=O)CN1CCN(CCCC(c2ccc(F)cc2)c2ccc(F)cc2)CC1 [lidoflazine]
Result :: 105

Query :: Next entry: CCCc1nc(C)c2c(=O)nc(-c3cc(S(=O)(=O)N4CCN(CC)CC4)ccc3OCC)[nH]n12 [vardenafil]
Result :: 104

Query :: Now this one: CNCc1ccc(C)c(NC(=O)c2ccc(Nc3nc(-c4ccccc4)c4ccccc4n3)cc2)c1
Result :: 98.3

Query :: Can you check CSCC1CN(/N=C/c2ccc([N+](=O)[O-])o2)C(=O)O1 (stereo unspecified) [inimur] next?
Result :: 94.5

Query :: Same lookup for CNCCCN1c2ccccc2CCc2ccccc21 [desipramine] , please.
Result :: 94.3

Query :: Field entry: COC(=O)[C@H]1[C@H]2C[C@@H]3c4[nH]c5cc(OC)ccc5c4CCN3C[C@H]2C[C@@H](OC(=O)c2cc(OC)c(OC)c(OC)c2)[C@@H]1OC [reserpine]
Result :: 91.9

Query :: Another compound: CC(=O)Nc1ccc(C(=O)Nc2ccccc2N)cc1 [tacedinaline]
Result :: 99.9

Query :: Input N#Cc1cc(CN2CCC(Nc3ncnc4sc(Cl)cc34)CC2)ccc1F
Result :: 98.8

Query :: Record: CC(=O)N[C@@H](CC(=O)O)C(=O)N[C@@H](CCC(=O)O)C(=O)O [spaglumic-acid]
Result :: 94.6

Query :: // next record CCC(N)C(O)c1ccc(O)c(O)c1 (stereo unspecified) [ethylnorepinephrine]
Result :: 89.9

Query :: Do the same for O=C1c2ccccc2C(Cc2ccncc2)(Cc2ccncc2)c2ccccc21 [XE-991] please
Result :: 93.8

Query :: Then what about the compound COC(=O)C1=C(C)NC(C)=C(C(=O)OC)C1c1ccccc1[N+](=O)[O-] [nifedipine] ?
Result :: 96.8

Query :: Next entry: CC1(CN)Cc2ccccc2C1 [ORG-9768]
Result :: 93.9

Query :: Would you mind doing Cc1sc2c(c1C)C(c1ccc(Cl)cc1)=N[C@@H](CC(=O)Nc1ccc(OCCOCCOCCOCCNc3cccc4c3C(=O)N(C3CCC(=O)NC3=O)C4=O)cc1)c1nnc(C)n1-2 (stereo partly specified) [ARV-825] as well?
Result :: 44

Query :: Same thing, different compound: O=C(O)Cn1nnc(-c2cc(N3CCC(Oc4cc(F)ccc4Br)CC3)no2)n1 [MK-8245]
Result :: 102

Query :: What do we get for Cc1onc(-c2ccccc2Cl)c1C(=O)N[C@@H]1C(=O)N2[C@@H]1SC(C)(C)[C@@H]2C(=O)O [cloxacillin] ?
Result :: 109

Query :: Next entry: Cc1ccc(C(=O)N(CCCN)[C@@H](c2nc3cc(Cl)ccc3c(=O)n2Cc2ccccc2)C(C)C)cc1 [ispinesib]
Result :: 64

Query :: Then what about the compound CNC(=O)CN(CCN(CCN(CC(=O)[O-])CC(=O)NC)CC(=O)[O-])CC(=O)[O-].[Gd+3] [gadodiamide] ?
Result :: 91.1

Query :: Item: NC(=O)c1cc([N+](=O)[O-])cc([N+](=O)[O-])c1 [nitromide]
Result :: 104

Query :: What do we get for CC(C)NC(=O)c1ccc(C#Cc2ccncc2)cn1 ?
Result :: 92.4

Query :: Also, Cc1cccc(Nc2nc(-c3ccncc3)cs2)c1 please.
Result :: 98

Query :: Here is the next compound: CCOC(=O)[C@H](Cc1ccc([N+](=O)[O-])cc1)NC(=O)c1ccccc1
Result :: 96.7

Query :: Do the same for COc1cccc(-n2nc(C(=O)O)cc2-c2ccc(C3CCCCC3)c(Cl)c2)c1 [TC-LPA5-4] please
Result :: 97.7

Query :: # repeat for CN1[C@@H]2CC[C@H]1C[C@@H](OC1c3ccccc3CCc3ccccc31)C2 [deptropine]
Result :: 92.5

Query :: Would you mind doing COc1cccc(-c2cc(=O)c3ccccc3o2)c1N as well?
Result :: 95.9

Query :: Further, for CC[C@H](c1ccc(O)cc1)[C@@H](CC)c1ccc(O)cc1 [hexestrol] ?
Result :: 95

Query :: Then Clc1ccc(C(c2ccc(Cl)cc2)C(Cl)(Cl)Cl)cc1 [4,4'-DDT] ?
Result :: 95.2

Query :: Same question for Cn1c2c(c3ccccc31)CCNCC2 please.
Result :: 97.9
